A collection of compounds and their measured growth inhibition
# protocol_description: NCI Yeast Anticancer Drug Screen. Data for the bub3 strain (AID 167)
# test_settings: S. cerevisiae bub3 mutant strain, at 5.0 µM (retest, dose inferred, filed as 0.5), hits give high values
About 79,000 compounds went through this panel and 15% of them were active in at least one assay; those are over-represented in the sample as a whole.
Give the quantity in %, number only.

# annotated cases, reported growth inhibition shown
compound	unit	growth inhibition
COc1cc2ccnc(-c3c4ccccc4c(N)c4c(OC)c(OC)ccc34)c2cc1OC	%	-3
O=C1/C(=C/c2ccccc2)CCCC1CN1CCCCC1 (stereo not drawn)	%	12
CC(C)(C)CC(C)(C)c1cc(O)c(O)c(CN2CCCCC2)c1	%	-13
CCC(C)OC(=O)Nc1ccc(C)c(NC(=O)OC(C)CC)c1 (stereo not drawn)	%	2
CCC(C)NC1=NCC(C)S1 (stereo not drawn)	%	19

Reported growth inhibition, compound Cc1c2cc[n+](Cc3ccc(I)cc3)cc2c(C)c2c1[nH]c1ccccc12 : ____
55

Here is the next compound: Cc1nc(-c2cc3cc([N+](=O)[O-])ccc3oc2=O)cs1
-15

And the next one, O=C1C=C(Cl)C(=O)N1c1cccc(Cl)c1 ?
65

Now consider CN1C(=O)c2ccc3ccccc3c2C1=O .
4

Follow-up item: O=C(O)c1ccccc1/C=N/N=C1c2ccccc2-c2ccccc21
-9
